Molecular target: T1, human NK1 receptor (human, UniProt P25103)
T1 chain: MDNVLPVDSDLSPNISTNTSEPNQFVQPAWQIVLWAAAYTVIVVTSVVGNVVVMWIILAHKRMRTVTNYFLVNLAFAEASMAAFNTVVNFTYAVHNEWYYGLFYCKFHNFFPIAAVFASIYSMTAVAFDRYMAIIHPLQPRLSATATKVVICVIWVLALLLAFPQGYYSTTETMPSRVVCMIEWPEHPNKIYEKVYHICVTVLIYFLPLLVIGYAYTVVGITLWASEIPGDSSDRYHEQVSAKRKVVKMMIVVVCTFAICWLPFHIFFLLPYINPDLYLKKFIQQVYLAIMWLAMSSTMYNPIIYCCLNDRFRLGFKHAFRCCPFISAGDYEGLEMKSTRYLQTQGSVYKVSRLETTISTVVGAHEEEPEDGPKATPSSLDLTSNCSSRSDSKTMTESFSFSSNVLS
Experiment: competition
Non-standard residues stand in square brackets, D forms with d. No end group written: not given here. *: point of attachment. Dmt = Cc1cc(O)cc(C)c1C[C@H](N)C(=O)O; NMeF = CN[C@@H](Cc1ccccc1)C(=O)O; Orn = NCCC[C@H](N)C(=O)O; NHBn = c1ccc(CN*)cc1
# label = Satisfied if Ki < 3 nM else Not satisfied

Inquiry: Record [Dmt][dA]G[NMeF]SPLW-NHBn [AKG132] : is its Ki strictly below 3 nM?
Reply text: Not satisfied

Inquiry: Record Y[dA]G[NMeF]SPLW-NHBn [AKG126] : is its Ki strictly below 3 nM?
Reply text: Satisfied

Inquiry: Record Y[dA]G[NMeF]KPLW (not fully specified (C-terminus)) [AKG174] : is its Ki strictly below 3 nM?
Reply text: Not satisfied

Inquiry: Record Y[dA]GFSPLW (not fully specified (C-terminus)) [AKG038] : is its Ki strictly below 3 nM?
Reply text: Satisfied

Inquiry: Record Y[dA]G[NMeF][Orn]PLW (not fully specified (C-terminus)) [AKG173] : is its Ki strictly below 3 nM?
Reply text: Not satisfied
